Every entry's value here was drawn from PubChem BioAssay AID2060493.

tested on: 616215-338-R-J1-PDC tumor spheroids, viability; experiment: Anticancer human tumor 616215-338-R-J1-PDC patient-derived colon adenocarcinoma cell line growth inhibition [GQUAD]; conditions: second compound 3.16 µM; first compound 0.00999 µM; stronger effect = lower value; spheroids with HUVEC and MSC

{"compound": "CC[C@@]1(O)C(=O)OCc2c1cc1n(c2=O)Cc2cc3c(CN(C)C)c(O)ccc3nc2-1 + Cc1[nH]c2ccc(F)cc2c1-c1nc2c3cccnc3c3ncccc3c2[nH]1", "viability, T/C": "92%"}
{"compound": "CCc1c2c(nc3ccc(O)cc13)-c1cc3c(c(=O)n1C2)COC(=O)[C@]3(O)CC + CN(C)c1ccc(Nc2c3ccc(NC(=O)CCN4CCCC4)cc3nc3cc(NC(=O)CCN4CCCC4)ccc23)cc1", "viability, T/C": "49.3%"}
{"compound": "CCc1c2c(nc3ccc(O)cc13)-c1cc3c(c(=O)n1C2)COC(=O)[C@]3(O)CC + Cc1[nH]c2ccc(F)cc2c1-c1nc2c3cccnc3c3ncccc3c2[nH]1", "viability, T/C": "51.2%"}
{"compound": "CCc1c2c(nc3ccc(O)cc13)-c1cc3c(c(=O)n1C2)COC(=O)[C@]3(O)CC + Cc1cnc(CNC(=O)c2c(=O)c3ccc(N4CCCN(C)CC4)nc3n3c2sc2ccccc23)cn1", "viability, T/C": "21.1%"}

---

system: 616215-338-R-J1-PDC tumor spheroids, viability; experiment: Anticancer human tumor 616215-338-R-J1-PDC cell line growth inhibition [GQUAD]; conditions: second compound 3.16 µM; first compound 1 µM; stronger effect = lower value; spheroids with HUVEC and MSC;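 note: spheroids exposed to agents for 7 days before readout; percent viability relative to DMSO vehicle control wells taken as 100%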
Friendly reminder: viability, T/C below 20% is met, at or above is not met.

{"molecule": "COc1cc(C2c3cc4c(cc3C(OC3OC5COC(C)OC5C(O)C3O)C3COC(=O)C23)OCO4)cc(OC)c1O (stereo unspecified) + Cc1[nH]c2ccc(F)cc2c1-c1nc2c3cccnc3c3ncccc3c2[nH]1", "study-target": "616215-338-R-J1-PDC tumor spheroids, viability", "group-label": "not met"}
{"molecule": "CC1COCCN1c1cc(-c2ccnn2C)c2ccnc(-c3ccn[nH]3)c2n1 (stereo unspecified) + CN(C)c1ccc(Nc2c3ccc(NC(=O)CCN4CCCC4)cc3nc3cc(NC(=O)CCN4CCCC4)ccc23)cc1", "study-target": "616215-338-R-J1-PDC tumor spheroids, viability", "group-label": "not met"}
{"molecule": "CCCS(=O)(=O)Nc1ccc(F)c(C(=O)c2c[nH]c3ncc(-c4ccc(Cl)cc4)cc23)c1F + Cc1cnc(CNC(=O)c2c(=O)c3ccc(N4CCCN(C)CC4)nc3n3c2sc2ccccc23)cn1", "study-target": "616215-338-R-J1-PDC tumor spheroids, viability", "group-label": "not met"}
{"molecule": "CC(C)(O)C1CCC(Nc2ccc3ncc(-c4cccc(C(F)(F)F)c4)n3n2)CC1 (stereo unspecified) + Cc1[nH]c2ccc(F)cc2c1-c1nc2c3cccnc3c3ncccc3c2[nH]1", "study-target": "616215-338-R-J1-PDC tumor spheroids, viability", "group-label": "met"}
{"molecule": "O=c1[nH]cc(F)c(=O)[nH]1 + CN(C)c1ccc(Nc2c3ccc(NC(=O)CCN4CCCC4)cc3nc3cc(NC(=O)CCN4CCCC4)ccc23)cc1", "study-target": "616215-338-R-J1-PDC tumor spheroids, viability", "group-label": "not met"}
